- Tested on: Vero E6 infected with SARS-CoV-2
- Assay Notes: inhibition of SARS-CoV-2 cytopathic effect; higher = more antiviral protection, active = above 15
- Assay Context: 10000 nM; 48 h
Quantity Kind: inhibition of SARS-CoV-2 cytopathic effect (%)

- Compound: "N=C(N)N"
  Tested Target: "Vero E6 infected with SARS-CoV-2"
  Output Unit: "%"
  Data Value: -6.14
- Compound: "CC(=O)N[C@@H](Cc1c[nH]c2ccccc12)C(=O)OCc1cc(C(F)(F)F)cc(C(F)(F)F)c1"
  Tested Target: "Vero E6 infected with SARS-CoV-2"
  Output Unit: "%"
  Data Value: 4
- Compound: "C[C@]12CC[C@H](O)CC1=CC[C@@H]1[C@@H]2CC[C@]2(C)C(c3cccnc3)=CC[C@@H]12"
  Tested Target: "Vero E6 infected with SARS-CoV-2"
  Output Unit: "%"
  Data Value: 1.88
- Compound: "COc1cc(C(=O)OCCCN2CCCN(CCCOC(=O)c3cc(OC)c(OC)c(OC)c3)CC2)cc(OC)c1OC"
  Tested Target: "Vero E6 infected with SARS-CoV-2"
  Output Unit: "%"
  Data Value: 4.8
- Compound: "COc1cc2nc(C3CC3)nc(N3CCN(c4ccccc4OC)CC3)c2cc1OC"
  Tested Target: "Vero E6 infected with SARS-CoV-2"
  Output Unit: "%"
  Data Value: -4.17
- Compound: "CCCCCCCCCCCCCCCC(=O)OC(C)C [isopropyl-palmitate]"
  Tested Target: "Vero E6 infected with SARS-CoV-2"
  Output Unit: "%"
  Data Value: -2.42
- Compound: "NS(=O)(=O)c1cc2c(cc1Cl)NC(C(Cl)Cl)NS2(=O)=O (centres undefined) [trichlormethiazide]"
  Tested Target: "Vero E6 infected with SARS-CoV-2"
  Output Unit: "%"
  Data Value: -8.52
- Compound: "Cn1c(C#N)ccc1-c1ccc2c(c1)C(C)(C)OC(=S)N2"
  Tested Target: "Vero E6 infected with SARS-CoV-2"
  Output Unit: "%"
  Data Value: 1.06
- Compound: "C#CCN[C@@H]1CCc2ccccc21"
  Tested Target: "Vero E6 infected with SARS-CoV-2"
  Output Unit: "%"
  Data Value: -0.6

The reported measurements were obtained from the supplement of paper PMC13380429.
